target: uPA (Homo sapiens); construct: purchased Sigma, USA; assay: uPA enzymatic assay (selectivity screening); format: biochemical
Value Kind: inhibition at 5 µM
State the result as a value with its unit after it.

Solved cases below.
| Compound | Reported Value |
| --- | --- |
| N=C(N)c1ccc(Oc2cc(Oc3ccc(CN)cc3)cc(C(=O)NC3CCC(N)CC3)c2)cc1 (centres unmarked) | 5% |
| N=C(N)c1ccc(Oc2cc(OCc3ccc(Br)cc3)cc(C(=O)NC3CCC(N)CC3)c2)cc1 (centres unmarked) | 23% |
| N=C(N)c1ccc(Oc2cc(OCc3cccc(C(=N)N)c3)cc(C(=O)NC3CCC(N)CC3)c2)cc1 (centres unmarked) | 11% |

Dear colleague, could you please provide inhibition at 5 µM for the compounds listed below?
1. N=C(N)CCCCCOc1cc(Oc2ccc(C(=N)N)cc2)cc(C(=O)NC2CCC(N)CC2)c1 (centres unmarked)
2. N=C(N)c1ccc(Oc2cc(Oc3ccc(C(=N)N)cc3)cc(C(=O)OC3CCC(N)CC3)c2)cc1 (centres unmarked)
3. [H]/N=C(\N)c1ccc(Oc2cc(Oc3ccc(/C(N)=N/[H])cc3)cc(C(=O)NC3CCC(N)CC3)c2)cc1 (centres unmarked)
4. N=C(N)CCCCOc1cc(Oc2ccc(C(=N)N)cc2)cc(C(=O)NC2CCC(N)CC2)c1 (centres unmarked)
5. N=C(N)c1ccc(Oc2cc(Oc3ccc(C(=N)N)cc3)cc(C(=O)N3CCN(CCN)CC3)c2)cc1
6. N=C(N)c1ccc(Oc2cc(OCc3cccc(C(=N)N)c3)cc(C(=O)N3CCC(CCN)CC3)c2)cc1
7. Cc1cc(Oc2cc(Oc3ccc(C(=N)N)cc3)cc(C(=O)NC3CCC(N)CC3)c2)ccc1C(=N)N (centres unmarked)
8. N=C(N)c1ccc(Oc2cc(Oc3ccc(C(=N)N)cc3Cl)cc(C(=O)NC3CCC(N)CC3)c2)cc1 (centres unmarked)

Reply |
1: 3%; 2: 25%; 3: 14%; 4: 4%; 5: 5%; 6: 10%; 7: 11%; 8: 9%

Dear colleague, could you please provide inhibition at 5 µM for the compounds listed below?
1. N=C(N)c1ccc(Oc2cc(C(=O)NC3CCC(N)CC3)cc(Oc3ccc(C(=N)N)cc3)n2)cc1 (centres unmarked)
2. N=C(N)c1ccc(COc2cc(Oc3ccc(C(=N)N)cc3)cc(C(=O)N3CCC(CCN)CC3)c2)cc1
3. N=C(N)c1ccc(COc2cc(Oc3ccc(C(=N)N)cc3)cc(C(=O)NC3CCC(N)CC3)c2)cc1 (centres unmarked)
4. N=C(N)c1ccc(Oc2cc(OCc3cccc(CN)c3)cc(C(=O)NC3CCC(N)CC3)c2)cc1 (centres unmarked)
5. N=C(N)c1ccc(Oc2cc(OCc3ccc(CN)cc3)cc(C(=O)NC3CCC(N)CC3)c2)cc1 (centres unmarked)
6. N=C(N)c1cccc(COc2cc(OCc3cccc(C(=N)N)c3)cc(C(=O)NC3CCC(N)CC3)c2)c1 (centres unmarked)

Reply |
1: 13%; 2: 7%; 3: 7%; 4: -1%; 5: 6%; 6: 11%

###

test system: DU145 cells; experiment: Cell invasion assay (matrigel transwell); format: cell-based; conditions: Homo sapiens, DU-145, 48 hours
I'd be grateful if you could share measured inhibition at 10 µM for these entries.
Numbers only, in %.

Solved cases below.
| Molecule | inhibition at 10 µM [%] |
| --- | --- |
| N=C(N)CCCCOc1cc(Oc2ccc(C(=N)N)cc2)cc(C(=O)NC2CCC(N)CC2)c1 (stereo not drawn) | 88 |
| N=C(N)c1cc(F)c(Oc2cc(Oc3ccc(CN)cc3)cc(C(=O)NC3CCC(N)CC3)c2)c(F)c1 (stereo not drawn) | 88 |
| Cc1cc(Oc2cc(Oc3ccc(C(=N)N)cc3)cc(C(=O)NC3CCC(N)CC3)c2)ccc1C(=N)N (stereo not drawn) | 45 |
| N=C(N)CCCCCOc1cc(Oc2ccc(C(=N)N)cc2)cc(C(=O)NC2CCC(N)CC2)c1 (stereo not drawn) | 95 |
| N=C(N)c1ccc(Oc2cc(OCc3ccc(Br)cc3)cc(C(=O)NC3CCC(N)CC3)c2)cc1 (stereo not drawn) | 61 |
| N=C(N)c1ccc(Oc2cc(OCc3cccc(CN)c3)cc(C(=O)NC3CCC(N)CC3)c2)cc1 (stereo not drawn) | 63 |
| N=C(N)c1ccc(COc2cc(Oc3ccc(C(=N)N)cc3)cc(C(=O)N3CCC(CCN)CC3)c2)cc1 | 91 |
| N=C(N)c1ccc(Oc2cc(Oc3ccc(CN)cc3)cc(C(=O)NC3CCC(N)CC3)c2)cc1 (stereo not drawn) | 92 |

Next molecule, please.
Ask | Requested read-out: inhibition at 10 µM. Entry: [H]/N=C(\N)c1ccc(Oc2cc(Oc3ccc(/C(N)=N/[H])cc3)cc(C(=O)NC3CCC(N)CC3)c2)cc1 (stereo not drawn)
Reply | 79

###

target: Purified recombinant matriptase (Homo sapiens); assay: Matriptase fluorescence-based enzymatic assay (Boc-Gln-Ala-Arg-AMC cleavage); assay type: biochemical; settings: Table 2; read-out: Matriptase IC50
Sequence (Q9Y5Y6 whole entry): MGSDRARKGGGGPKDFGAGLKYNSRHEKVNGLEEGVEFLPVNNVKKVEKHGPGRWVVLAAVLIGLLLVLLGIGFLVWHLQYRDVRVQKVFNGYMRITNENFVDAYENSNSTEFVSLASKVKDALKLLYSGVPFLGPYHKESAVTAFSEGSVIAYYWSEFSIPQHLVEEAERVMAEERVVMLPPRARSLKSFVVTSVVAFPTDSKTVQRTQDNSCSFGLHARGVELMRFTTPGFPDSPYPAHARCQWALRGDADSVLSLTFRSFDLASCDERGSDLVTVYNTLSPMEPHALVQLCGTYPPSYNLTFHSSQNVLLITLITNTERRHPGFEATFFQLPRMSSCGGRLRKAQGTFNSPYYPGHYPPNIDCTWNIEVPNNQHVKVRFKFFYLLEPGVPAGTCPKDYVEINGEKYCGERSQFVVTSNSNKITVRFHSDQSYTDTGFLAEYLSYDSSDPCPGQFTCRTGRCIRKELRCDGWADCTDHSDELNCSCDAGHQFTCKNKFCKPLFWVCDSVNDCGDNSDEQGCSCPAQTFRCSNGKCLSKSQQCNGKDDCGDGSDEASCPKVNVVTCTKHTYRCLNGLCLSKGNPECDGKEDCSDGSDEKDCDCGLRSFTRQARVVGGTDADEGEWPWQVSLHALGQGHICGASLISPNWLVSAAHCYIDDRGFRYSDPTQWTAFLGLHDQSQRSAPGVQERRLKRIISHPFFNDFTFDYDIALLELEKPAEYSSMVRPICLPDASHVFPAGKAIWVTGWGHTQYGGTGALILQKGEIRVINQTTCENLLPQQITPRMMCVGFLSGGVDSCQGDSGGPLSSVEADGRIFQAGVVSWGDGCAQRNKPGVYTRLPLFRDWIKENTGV
Value Kind: pIC50
Answers are plain numbers, as −log10 of the molar value.

Solved cases below.
| Molecule | Target | Reported Value |
| --- | --- | --- |
| N=C(N)c1ccc(Oc2cc(OCc3ccc(Br)cc3)cc(C(=O)NC3CCC(N)CC3)c2)cc1 (stereo not drawn) [Example 51] | Purified recombinant matriptase (Homo sapiens) | 6.91 |
| N=C(N)c1ccc(Oc2cc(Oc3ccc(CN)cc3)cc(C(=O)NC3CCC(N)CC3)c2)cc1 (stereo not drawn) [Example 84] | Purified recombinant matriptase (Homo sapiens) | 7.20 |
| Cc1cc(Oc2cc(Oc3ccc(C(=N)N)cc3)cc(C(=O)NC3CCC(N)CC3)c2)ccc1C(=N)N (stereo not drawn) [Example 74] | Purified recombinant matriptase (Homo sapiens) | 7.89 |
| N=C(N)c1cc(F)c(Oc2cc(Oc3ccc(CN)cc3)cc(C(=O)NC3CCC(N)CC3)c2)c(F)c1 (stereo not drawn) [Example 87] | Purified recombinant matriptase (Homo sapiens) | 6.80 |
| N=C(N)CCCCOc1cc(Oc2ccc(C(=N)N)cc2)cc(C(=O)NC2CCC(N)CC2)c1 (stereo not drawn) [Example 65] | Purified recombinant matriptase (Homo sapiens) | 7.80 |

Dear colleague, could you please provide pIC50 for the molecules listed below?
1. N=C(N)CCCCCOc1cc(Oc2ccc(C(=N)N)cc2)cc(C(=O)NC2CCC(N)CC2)c1 (stereo not drawn) [Example 66]
2. [H]/N=C(\N)c1ccc(Oc2cc(Oc3ccc(/C(N)=N/[H])cc3)cc(C(=O)NC3CCC(N)CC3)c2)cc1 (stereo not drawn) [Example 27]

Reply |
1: 7.80; 2: 7.77

Dear colleague, could you please provide pIC50 for the molecules listed below?
1. N=C(N)c1ccc(COc2cc(Oc3ccc(C(=N)N)cc3)cc(C(=O)N3CCC(CCN)CC3)c2)cc1 [Example 58]
2. N=C(N)c1ccc(Oc2cc(OCc3cccc(CN)c3)cc(C(=O)NC3CCC(N)CC3)c2)cc1 (stereo not drawn) [Example 47]

Reply |
1: 7.46; 2: 7.42

###

target: plasmin (Homo sapiens); construct: uPA, Factor Xa, thrombin, plasmin and trypsin (Sigma, USA); purchased Sigma, USA; test: Plasmin enzymatic assay (selectivity screening); format: biochemical
Sequence (P00747 581-810 limits assumed, species assumed): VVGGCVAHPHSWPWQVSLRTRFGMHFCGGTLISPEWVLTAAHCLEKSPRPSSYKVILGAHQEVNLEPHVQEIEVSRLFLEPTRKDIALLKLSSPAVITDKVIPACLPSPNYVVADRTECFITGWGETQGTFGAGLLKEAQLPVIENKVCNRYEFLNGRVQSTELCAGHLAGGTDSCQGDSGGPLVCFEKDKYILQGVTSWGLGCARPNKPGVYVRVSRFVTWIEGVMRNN
Sequence (P00747 97-580 partner limits assumed, species assumed): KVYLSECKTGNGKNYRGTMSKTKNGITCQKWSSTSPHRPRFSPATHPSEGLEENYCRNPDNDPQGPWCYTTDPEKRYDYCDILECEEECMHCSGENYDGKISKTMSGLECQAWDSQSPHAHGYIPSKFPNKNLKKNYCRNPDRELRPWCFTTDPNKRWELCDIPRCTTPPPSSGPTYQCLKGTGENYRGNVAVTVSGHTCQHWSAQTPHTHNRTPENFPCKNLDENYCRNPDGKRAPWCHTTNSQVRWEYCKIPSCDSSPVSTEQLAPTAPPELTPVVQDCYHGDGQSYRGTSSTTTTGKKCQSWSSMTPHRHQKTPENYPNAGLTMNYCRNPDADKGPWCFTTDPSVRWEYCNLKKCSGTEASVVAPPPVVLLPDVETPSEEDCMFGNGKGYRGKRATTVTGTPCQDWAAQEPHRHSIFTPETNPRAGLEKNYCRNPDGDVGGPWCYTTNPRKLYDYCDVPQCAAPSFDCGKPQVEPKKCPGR
I'd be grateful if you could share measured inhibition at 5 µM for these entries.
Numbers only, in %.

Solved cases below.
| Molecule | inhibition at 5 µM / % |
| --- | --- |
| N=C(N)c1ccc(Oc2cc(Oc3ccc(CN)cc3)cc(C(=O)NC3CCC(N)CC3)c2)cc1 (stereo not drawn) [Example 84] | 10 |
| N=C(N)CCCCOc1cc(Oc2ccc(C(=N)N)cc2)cc(C(=O)NC2CCC(N)CC2)c1 (stereo not drawn) [Example 65] | 5 |
| Cc1cc(Oc2cc(Oc3ccc(C(=N)N)cc3)cc(C(=O)NC3CCC(N)CC3)c2)ccc1C(=N)N (stereo not drawn) [Example 74] | 10 |
| N=C(N)c1cccc(COc2cc(OCc3cccc(C(=N)N)c3)cc(C(=O)NC3CCC(N)CC3)c2)c1 (stereo not drawn) [Example 77] | 22 |
| N=C(N)c1ccc(COc2cc(Oc3ccc(C(=N)N)cc3)cc(C(=O)NC3CCC(N)CC3)c2)cc1 (stereo not drawn) [Example 43] | 33 |

Ask | Requested read-out: inhibition at 5 µM. Entry: [H]/N=C(\N)c1ccc(Oc2cc(Oc3ccc(/C(N)=N/[H])cc3)cc(C(=O)NC3CCC(N)CC3)c2)cc1 (stereo not drawn) [Example 27]
Reply | 33

###

biological target: thrombin (Homo sapiens); construct: uPA, Factor Xa, thrombin, plasmin and trypsin (Sigma, USA); purchased Sigma, USA; assay: Thrombin enzymatic assay (selectivity screening); type: biochemical
Value Kind: inhibition at 5 µM (%)
Give bare numbers, in %.

| Compound | inhibition at 5 µM, % |
| --- | --- |
| N=C(N)c1ccc(Oc2cc(OCc3cccc(C(=N)N)c3)cc(C(=O)N3CCC(CCN)CC3)c2)cc1 | 57 |
| N=C(N)c1ccc(Oc2cc(OCc3ccc(Br)cc3)cc(C(=O)NC3CCC(N)CC3)c2)cc1 (centres unmarked) | 41 |
| N=C(N)c1ccc(Oc2cc(Oc3ccc(C(=N)N)cc3)cc(C(=O)OC3CCC(N)CC3)c2)cc1 (centres unmarked) | 44 |
| N=C(N)c1ccc(COc2cc(Oc3ccc(C(=N)N)cc3)cc(C(=O)N3CCC(CCN)CC3)c2)cc1 | 70 |
| N=C(N)c1ccc(Oc2cc(C(=O)NC3CCC(N)CC3)cc(Oc3ccc(C(=N)N)cc3)n2)cc1 (centres unmarked) | 28 |
| N=C(N)c1ccc(Oc2cc(Oc3ccc(C(=N)N)cc3Cl)cc(C(=O)NC3CCC(N)CC3)c2)cc1 (centres unmarked) | 26 |

Dear colleague, could you please provide inhibition at 5 µM for the compounds listed below?
1. Cc1cc(Oc2cc(Oc3ccc(C(=N)N)cc3)cc(C(=O)NC3CCC(N)CC3)c2)ccc1C(=N)N (centres unmarked)
2. N=C(N)c1ccc(Oc2cc(OCc3cccc(CN)c3)cc(C(=O)NC3CCC(N)CC3)c2)cc1 (centres unmarked)
3. N=C(N)CCCCCOc1cc(Oc2ccc(C(=N)N)cc2)cc(C(=O)NC2CCC(N)CC2)c1 (centres unmarked)
4. N=C(N)c1ccc(COc2cc(Oc3ccc(C(=N)N)cc3)cc(C(=O)NC3CCC(N)CC3)c2)cc1 (centres unmarked)
5. N=C(N)c1ccc(Oc2cc(OCc3ccc(CN)cc3)cc(C(=O)NC3CCC(N)CC3)c2)cc1 (centres unmarked)
6. N=C(N)c1cccc(COc2cc(OCc3cccc(C(=N)N)c3)cc(C(=O)NC3CCC(N)CC3)c2)c1 (centres unmarked)

Reply |
1: 33; 2: 3; 3: 21; 4: 45; 5: -12; 6: 76

Dear colleague, could you please provide inhibition at 5 µM for the compounds listed below?
1. [H]/N=C(\N)c1ccc(Oc2cc(Oc3ccc(/C(N)=N/[H])cc3)cc(C(=O)NC3CCC(N)CC3)c2)cc1 (centres unmarked)
2. N=C(N)c1ccc(Oc2cc(Oc3ccc(C(=N)N)cc3)cc(C(=O)N3CCN(CCN)CC3)c2)cc1
3. N=C(N)c1ccc(Oc2cc(Oc3ccc(CN)cc3)cc(C(=O)NC3CCC(N)CC3)c2)cc1 (centres unmarked)
4. N=C(N)c1ccc(Oc2cc(OCc3cccc(C(=N)N)c3)cc(C(=O)NC3CCC(N)CC3)c2)cc1 (centres unmarked)
5. N=C(N)CCCCOc1cc(Oc2ccc(C(=N)N)cc2)cc(C(=O)NC2CCC(N)CC2)c1 (centres unmarked)

Reply |
1: 41; 2: 61; 3: 36; 4: 36; 5: 27
